target: KCNQ2/3 channels (Homo sapiens, UniProt O43525+O43526); construct: expressed in transfected cells; assay: Fluorescence assay using a voltage sensitive dye (fluorimetry); format: cell-based; conditions: CHO-K1, plateau effect relative to saturated retigabine (50 μM) = 100%; CHO-K1 cells expressing KCNQ2/3; negative values = antagonistic; read-out: Fluorimetry % efficacy (retigabine = 100%)
Sequence (O43526 whole entry): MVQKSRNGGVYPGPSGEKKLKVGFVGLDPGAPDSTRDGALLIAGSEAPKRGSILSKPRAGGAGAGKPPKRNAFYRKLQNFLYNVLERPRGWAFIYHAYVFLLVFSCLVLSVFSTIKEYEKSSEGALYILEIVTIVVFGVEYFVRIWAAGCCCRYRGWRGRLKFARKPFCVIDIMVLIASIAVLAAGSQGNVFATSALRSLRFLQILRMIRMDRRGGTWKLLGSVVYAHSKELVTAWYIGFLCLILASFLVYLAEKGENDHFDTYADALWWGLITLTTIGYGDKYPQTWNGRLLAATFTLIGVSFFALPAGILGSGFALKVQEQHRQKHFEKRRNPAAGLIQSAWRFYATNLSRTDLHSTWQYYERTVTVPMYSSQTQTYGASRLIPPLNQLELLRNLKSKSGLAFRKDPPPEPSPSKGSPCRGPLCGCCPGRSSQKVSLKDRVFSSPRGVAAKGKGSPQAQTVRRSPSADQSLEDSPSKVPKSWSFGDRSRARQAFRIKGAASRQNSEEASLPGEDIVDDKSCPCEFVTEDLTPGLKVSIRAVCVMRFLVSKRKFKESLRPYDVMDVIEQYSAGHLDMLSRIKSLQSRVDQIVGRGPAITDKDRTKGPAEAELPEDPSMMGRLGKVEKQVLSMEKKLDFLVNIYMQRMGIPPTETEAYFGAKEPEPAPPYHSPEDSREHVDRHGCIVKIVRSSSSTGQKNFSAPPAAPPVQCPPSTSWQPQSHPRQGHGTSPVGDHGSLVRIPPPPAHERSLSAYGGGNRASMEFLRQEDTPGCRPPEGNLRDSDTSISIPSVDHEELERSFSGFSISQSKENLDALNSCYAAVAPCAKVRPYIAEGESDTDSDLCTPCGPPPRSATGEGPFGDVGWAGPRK
Sequence (O43525 whole entry): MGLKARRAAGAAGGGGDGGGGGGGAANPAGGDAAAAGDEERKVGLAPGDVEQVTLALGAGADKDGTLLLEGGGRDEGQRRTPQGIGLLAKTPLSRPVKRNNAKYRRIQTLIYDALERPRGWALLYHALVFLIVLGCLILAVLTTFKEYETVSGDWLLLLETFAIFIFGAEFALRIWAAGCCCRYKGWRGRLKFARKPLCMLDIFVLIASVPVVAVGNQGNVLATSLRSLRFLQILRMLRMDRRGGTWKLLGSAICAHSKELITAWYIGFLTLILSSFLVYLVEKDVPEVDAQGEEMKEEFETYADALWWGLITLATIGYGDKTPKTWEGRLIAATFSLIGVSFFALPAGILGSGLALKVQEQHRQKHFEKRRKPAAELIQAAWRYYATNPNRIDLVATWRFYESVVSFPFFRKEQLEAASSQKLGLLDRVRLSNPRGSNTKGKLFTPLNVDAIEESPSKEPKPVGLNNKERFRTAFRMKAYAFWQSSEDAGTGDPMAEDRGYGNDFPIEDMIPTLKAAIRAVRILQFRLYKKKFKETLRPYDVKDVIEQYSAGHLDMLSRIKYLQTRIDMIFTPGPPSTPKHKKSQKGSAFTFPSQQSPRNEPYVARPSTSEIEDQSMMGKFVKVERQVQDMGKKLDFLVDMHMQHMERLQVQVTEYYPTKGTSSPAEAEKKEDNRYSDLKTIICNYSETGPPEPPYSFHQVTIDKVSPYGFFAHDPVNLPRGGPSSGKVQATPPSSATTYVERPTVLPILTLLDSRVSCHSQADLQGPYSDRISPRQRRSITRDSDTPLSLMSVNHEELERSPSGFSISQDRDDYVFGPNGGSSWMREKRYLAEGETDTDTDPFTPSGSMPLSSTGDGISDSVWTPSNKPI
readout: Emax (%)

# compound, Emax [%]
data = [
    ("CCSc1nc(N2CCOCC2=O)cc(C)c1C(=O)NCc1cccc(F)c1", 135),
    ("Cc1cc(N2CCOCC2)nc(N(C)C)c1C(=O)NCc1cc(F)cc(F)c1", 214),
    ("CCSc1nc(N2CCOCC2)cc(C)c1C(=O)NCCCC(C)(C)F", 233),
]

[1] CCSc1nc(N2CCOC[C@H]2CO)cc(C)c1C(=O)NCc1cccc(F)c1
[2] CCSc1nc(N2CCN(C(C)=O)CC2)cc(C)c1C(=O)NCc1cccc(F)c1
[Q] Hi! Which is lower in terms of Emax, the first one 1 or the second one 2 ? Choose, then provide that item's label.
[A] 2

[a] CCSc1nc(N2CCOCC2)cc(C)c1C(=O)NCC(O)CC(C)C (centres unmarked)
[b] CCSc1nc(N2CCOCC2)cc(C)c1C(=O)NCCCc1ccncc1
[Q] Hi! Which is lower in terms of Emax, the first one a or the second one b ? Choose, then provide that item's label.
[A] b
(b: 96%, a: 180%)
